- Tested on: 485368-065-R4-J2-PDC spheroids with HUVEC/MSC, viability;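 further: spheroids exposed to compounds for seven days; 100% = DMSO vehicle control wells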
- ASSAY EXPLANATION: Anticancer human tumor 485368-065-R4-J2-PDC patient-derived pancreatic carcinoma cell line growth inhibition [CLK]
- TEST CONDITIONS: second compound 0.1 µM; first compound 10 µM; active compounds read low
Note to self: use 1 only for viability, T/C readings below 90%; a reading exactly at 90% still gets -1.

**Query** A record lists C=C(F)C(=O)N1CCN(c2nc(OCC3CCCN3C)nc3c2CCN(c2cccc4cccc(Cl)c24)C3)CC1CC#N (stereo not given) + CNC(=O)c1ccc(Nc2nc(OC3CCCC3)c3c(-c4ccc5nc(C)oc5c4)c[nH]c3n2)c(OC)c1 . Is its viability, T/C below 90%?
**Result** -1

Further cases:
**Query** A record lists CC1(C)CCC(CN2CCN(c3ccc(C(=O)NS(=O)(=O)c4ccc(NCC5CCOCC5)c([N+](=O)[O-])c4)c(Oc4cnc5[nH]ccc5c4)c3)CC2)=C(c2ccc(Cl)cc2)C1 + CN1CCN(c2cc(C(=O)Nc3cc4cc(-c5cnn(C)c5)ccc4cn3)ccn2)CC1 . Is its viability, T/C below 90%?
**Result** 1
